Molecular target: IL-23R (Homo sapiens, UniProt Q5VWK5)
Sequence (Q5VWK5 24-629): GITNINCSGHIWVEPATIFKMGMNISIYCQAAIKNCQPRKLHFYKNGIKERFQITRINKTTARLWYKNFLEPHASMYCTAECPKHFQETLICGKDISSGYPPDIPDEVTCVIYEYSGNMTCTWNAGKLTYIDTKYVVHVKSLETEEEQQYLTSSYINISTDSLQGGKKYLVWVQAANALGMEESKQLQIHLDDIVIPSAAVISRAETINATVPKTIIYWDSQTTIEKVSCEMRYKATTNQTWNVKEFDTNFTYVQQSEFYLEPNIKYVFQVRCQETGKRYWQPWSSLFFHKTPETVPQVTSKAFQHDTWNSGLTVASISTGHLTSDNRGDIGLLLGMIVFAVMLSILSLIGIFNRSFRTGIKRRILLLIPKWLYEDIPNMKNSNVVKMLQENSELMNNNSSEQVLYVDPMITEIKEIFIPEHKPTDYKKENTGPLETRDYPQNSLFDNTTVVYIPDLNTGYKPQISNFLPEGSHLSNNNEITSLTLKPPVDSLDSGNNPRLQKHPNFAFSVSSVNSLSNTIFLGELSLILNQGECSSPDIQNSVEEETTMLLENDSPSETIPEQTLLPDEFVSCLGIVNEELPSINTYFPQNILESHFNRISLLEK
Assay: Surface plasmon resonance (SPR) binding affinity to hIL-23R
Parameters: his tag (C); purchased
outcome.measure: Kd (nM)
Write the answer as a number in nM, unit excluded.

Identify Kd associated with the sequence PEPEKYLQELCKKYYEGKLSQQEAVEEIRKYARKWGLEAWKLVWYFMQCVKRDI [rA11dslf02_M1P_R8Q_K35W]
0.075
